B1: Activity-dependent neuroprotector homeobox protein, residues 770 to 810; numbered along this chain, Q9H2P0 (parent)
chain: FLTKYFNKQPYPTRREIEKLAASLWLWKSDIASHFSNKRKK

variants of: B1; experiment: abundance fitness (aPCA) (normalised: wild type 0, dead -1); higher = more abundant; growth selection in yeast, the domain comes from the species named; conditions: Homo sapiens
quantity_name: abundance fitness
Give bare numbers.

Batch of 8 variants: report abundance fitness for each.
1. K38C
2. W25D
3. H34S
4. D30E
5. I17D
6. K19F
7. L26R
8. N37A

*A*
[-0.193, -0.159, -0.02, -0.124, -0.604, -0.944, 0.198, -0.093]
